assay: inhibitors of Clostridioides difficile proliferation – 4-point retest, confirmation (AID 1224921); details: Clostridioides difficile clinical isolate growth, OD600, 24 h, active compounds read low; at 30 µM unless noted;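 further: plate controls were DMSO wells for no effect and levofloxacin 16 µg/mL wells for full effect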
Out of some 1,400 compounds screened, about 350 (25%) were called active. About 2% were inconclusive and are not listed. Not all results are given here. Results with a measured potency or affinity are listed apart.
reported.metric: max activity

Consider the reported max activity for these molecules:
Cc1ccc(-c2ccc3c(c2)O[C@H](CN(C)Cc2cccnc2)[C@H](C)CN([C@@H](C)CO)S3(=O)=O)cc1    32.9% (inactive)
O=C(C[C@@H]1C[C@H]2c3cc(NC(=O)NC4CCCC4)ccc3O[C@H]2[C@@H](CO)O1)NCc1ccccc1F    -6.86% [at 1.95 µM] (inactive)
C[C@@H]1CN([C@H](C)CO)S(=O)(=O)c2ccc(C#CC3CC3)cc2O[C@H]1CN(C)Cc1ccccc1F    11.3% [at 1.95 µM] (inactive)

In the following, a different molecule is considered.
max activity in this record for CO[C@@H]1CN(C)C(=O)c2cc(NS(=O)(=O)c3cn(C)cn3)ccc2OC[C@@H](C)N(Cc2cccc(Cl)c2)C[C@H]1C : 31.5% (inactive)

* * *

assay: inhibitors of Clostridioides difficile proliferation – 4-point retest, confirmation (AID 1224921); settings: Clostridioides difficile clinical isolate growth, OD600, 24 h, active compounds read low; at 30 µM unless noted;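 further: plate controls were DMSO wells for no effect and levofloxacin 16 µg/mL wells for full effect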
Screen size: about 1,400 compounds; about 350 (25%) were called active. Not shown: some 2% with an inconclusive outcome. These entries were drawn from the full list. Measured potencies and affinities stand elsewhere.
reported.metric: max activity

Consider the reported max activity for these compounds:
CO[C@@H]1CN(C)C(=O)c2ccc(NC(=O)c3ccc(F)cc3)cc2OC[C@@H](C)N(C(=O)c2ccc(F)cc2)C[C@@H]1C    -7.95% [at 0.5 µM] (inactive)
Cc1ccc(S(=O)(=O)N[C@H]2CC[C@H](CCNS(=O)(=O)Cc3ccccc3)O[C@H]2CO)cc1    -13.6% [at 7.5 µM] (inactive)
C[C@@H]1CN([C@H](C)CO)C(=O)c2cccc(NC(=O)Nc3ccc(C(F)(F)F)cc3)c2O[C@H]1CN(C)Cc1ccc2c(c1)OCO2    43.4% [at 8 µM] (inactive)
CO[C@H]1CN(C)C(=O)c2cc(NC(C)=O)ccc2OC[C@H](C)N(CCc2ccccc2)C[C@H]1C    19.8% (inactive)
CCCC#Cc1ccc2c(c1)O[C@@H](CN(C)Cc1ccncc1)[C@@H](C)CN([C@H](C)CO)S2(=O)=O    33.3% (inactive)

max activity in this record for C[C@H](CO)N1C[C@H](C)[C@H](CN(C)C(=O)NC2CCCCC2)Oc2c(NC(=O)Nc3ccc(C(F)(F)F)cc3)cccc2C1=O : 35.7% [at 1.95 µM] (inactive)

max activity in this record for COc1ccc(NC(=O)Nc2ccc3c(c2)[C@H]2C[C@H](CC(=O)N4CCc5ccccc5C4)O[C@@H](CO)[C@H]2O3)cc1 : -11.6% [at 0.5 µM] (inactive)

max activity in this record for COc1ccccc1NC(=O)N[C@@H]1CC[C@@H](CC(=O)N2CCC(Cc3ccccc3)CC2)O[C@@H]1CO : -7.56% (inactive)

max activity in this record for CCC(=O)N1C[C@H](C)[C@H](OC)CN(C)C(=O)c2cc(NS(=O)(=O)CC)ccc2OC[C@H]1C : -9.49% [at 1.95 µM] (inactive)

max activity in this record for C=CCOC(=O)[C@H]1[C@@H]2C(=O)O[C@@H](c3ccccc3)[C@@H](c3ccccc3)N2[C@@H](c2ccc(OCCOC(=O)[C@@H]3C[C@@H]4C(=O)N[C@@H](CC(C)C)C(=O)N4[C@@H]3c3cccc(OCCO)c3)cc2)[C@]12C(=O)Nc1ccccc12 : 24.6% (inactive)

max activity in this record for C[C@H](CO)N1C[C@H](C)[C@@H](CN(C)Cc2ccccc2)Oc2ccc(NS(C)(=O)=O)cc2CC1=O : 28% [at 35 µM] (inactive)

max activity in this record for CC(C)NC(=O)NCC[C@H]1CC[C@@H](NS(=O)(=O)c2ccc(Oc3ccccc3)cc2)[C@H](CO)O1 : 9.67% (inactive)

max activity in this record for O=C(NCC[C@@H]1CC[C@H](NC(=O)Nc2cc(F)ccc2F)[C@H](CO)O1)Nc1ccc(Cl)cc1 : -10.4% [at 0.5 µM] (inactive)

max activity in this record for CCCN1C[C@@H](C)[C@@H](OC)CN(C)C(=O)c2cc(NC(=O)CC)ccc2OC[C@@H]1C : 8.06% (inactive)

max activity in this record for Cc1ccccc1-c1ccc2c(c1)O[C@@H](CN(C)Cc1ccncc1)[C@@H](C)CN([C@H](C)CO)S2(=O)=O : 49.5% (inactive)
